- target under test: human cyclin B-CDK1 (Homo sapiens, UniProt P06493)
- Sequence (P06493 whole entry): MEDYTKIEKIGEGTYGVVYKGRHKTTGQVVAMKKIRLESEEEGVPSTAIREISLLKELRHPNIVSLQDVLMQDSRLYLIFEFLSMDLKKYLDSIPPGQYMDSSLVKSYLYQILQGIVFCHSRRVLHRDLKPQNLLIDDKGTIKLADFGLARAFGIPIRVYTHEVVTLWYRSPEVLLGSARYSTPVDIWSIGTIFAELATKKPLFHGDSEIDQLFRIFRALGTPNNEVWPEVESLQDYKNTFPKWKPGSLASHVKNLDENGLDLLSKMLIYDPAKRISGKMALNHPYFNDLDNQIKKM
- Sequence (P14635 whole entry partner): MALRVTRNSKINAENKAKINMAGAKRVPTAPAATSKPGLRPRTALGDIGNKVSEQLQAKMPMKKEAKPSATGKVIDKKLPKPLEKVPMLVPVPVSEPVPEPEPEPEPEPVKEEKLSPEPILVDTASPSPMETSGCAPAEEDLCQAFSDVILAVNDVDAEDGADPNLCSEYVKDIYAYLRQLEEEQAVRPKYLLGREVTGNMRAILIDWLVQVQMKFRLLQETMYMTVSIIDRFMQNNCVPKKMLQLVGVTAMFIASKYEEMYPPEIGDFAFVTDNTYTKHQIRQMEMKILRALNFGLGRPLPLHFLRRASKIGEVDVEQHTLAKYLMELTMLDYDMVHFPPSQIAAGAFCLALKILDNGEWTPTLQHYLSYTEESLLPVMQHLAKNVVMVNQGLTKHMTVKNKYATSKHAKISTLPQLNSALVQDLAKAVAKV
- test protocol: FlashPlate kinase assay, cyclin B-CDK1, Rb substrate
- measurement conditions: recombinant cyclin B-CDK1, Rb phosphorylation, 1 μM ATP
# note: exactly 1000 nM is not below, so it is false (0); use true (1) for IC50 strictly under it

- molecule: "CCc1cccc(C(=O)c2sc(Nc3ccc(OC4CCCN(CC)C4)cc3)nc2N)c1 (centres unmarked) [Example 79]"
  classification: "false (0)"
- molecule: "Nc1nc(Nc2ccc(OCCN3CCOCC3)cc2)sc1C(=O)c1cccc(F)c1 [Example 47]"
  classification: "true (1)"
- molecule: "CCN1CCC(Oc2ccc(Nc3nc(N)c(C(=O)c4cccc(C5CC5)c4)s3)cc2)C1 (centres unmarked) [Example 85]"
  classification: "false (0)"
- molecule: "CCc1cccc(C(=O)c2sc(Nc3ccc(OC4CCNC4)cc3)nc2N)c1 (centres unmarked) [Example 92, Acetic Acid]"
  classification: "true (1)"
- molecule: "CCNCCOc1ccc(Nc2nc(N)c(C(=O)c3ccc4c(c3)CCO4)s2)cc1 [Example 143]"
  classification: "false (0)"
- molecule: "Cc1cccc(C(=O)c2sc(Nc3ccc(OC[C@@H]4CCCN4C)cc3)nc2N)c1 [Example 111]"
  classification: "false (0)"
- molecule: "CCN(CC)CCOc1ccc(Nc2nc(N)c(C(=O)c3ccc(O)c(F)c3)s2)cc1 [Example 123]"
  classification: "true (1)"
- molecule: "CCc1cccc(C(=O)c2sc(Nc3ccc(OCCN(C)C)cc3)nc2N)c1 [Example 52]"
  classification: "false (0)"
- molecule: "CC(C)NCCOc1ccc(Nc2nc(N)c(C(=O)c3ccc4c(c3)OCCO4)s2)cc1 [Example 136]"
  classification: "false (0)"
- molecule: "COc1ccc(C(=O)c2sc(Nc3ccc(OCCN4CCCC4)cc3)nc2N)cc1[N+](=O)[O-] [Example 48]"
  classification: "false (0)"
- molecule: "COc1ccc(C(=O)c2sc(Nc3ccc(OC4CCCNC4)cc3)nc2N)cc1F (centres unmarked) [Example 97]"
  classification: "false (0)"
- molecule: "CCN(CC)CCOc1ccc(Nc2nc(N)c(C(=O)c3cccc(SC)c3)s2)cc1 [Example 126]"
  classification: "false (0)"
- molecule: "CCOc1cccc(C(=O)c2sc(Nc3ccc(OCCN4CCCC4)cc3)nc2N)c1 [Example 62]"
  classification: "false (0)"
- molecule: "COc1cccc(C(=O)c2sc(Nc3ccc(OC[C@@H](C)N4CCCC4)cc3)nc2N)c1 [Example 121, Acetic Acid]"
  classification: "false (0)"
- molecule: "CC(COc1ccc(Nc2nc(N)c(C(=O)c3cccc(F)c3)s2)cc1)N(C)C (centres unmarked) [Example 38]"
  classification: "true (1)"
